Below: a set of entries, each annotated with reported Activity.
target: Kappa-type opioid receptor (Homo sapiens, UniProt P41145); test: Activity at human recombinant kappa opioid receptor expressed in CHO cells by [35S]GTP-gamma-S binding assay relative to U69593; format: functional, cell-based
Sequence (P41145 whole entry): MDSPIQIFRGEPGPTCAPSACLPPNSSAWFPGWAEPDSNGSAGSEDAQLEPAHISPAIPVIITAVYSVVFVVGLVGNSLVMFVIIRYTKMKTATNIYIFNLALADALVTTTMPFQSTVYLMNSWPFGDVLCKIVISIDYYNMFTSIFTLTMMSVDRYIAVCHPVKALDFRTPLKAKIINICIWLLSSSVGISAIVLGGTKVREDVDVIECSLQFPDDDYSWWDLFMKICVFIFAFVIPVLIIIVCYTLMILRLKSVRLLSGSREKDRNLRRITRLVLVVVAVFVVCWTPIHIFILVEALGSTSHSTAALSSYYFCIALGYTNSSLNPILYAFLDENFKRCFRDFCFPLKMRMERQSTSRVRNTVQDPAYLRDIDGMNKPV
State the answer as a number, implicitly in %.

{"MOL SMILES": "Oc1ccc2c3c1O[C@H]1c4c(c5c(n4CC4CCCCC4)CCCC5)C[C@@]4(O)C(C2)N(CC2CC2)CC[C@]314", "Activity / %": 84}
{"MOL SMILES": "Oc1ccc2c3c1O[C@H]1c4c(c5c(n4CCc4ccccc4)CCCC5)C[C@@]4(O)C(C2)N(CC2CC2)CC[C@]314", "Activity / %": 76}
{"MOL SMILES": "CN1CC[C@]23c4c5ccc(O)c4O[C@H]2c2c(c4c(n2CC2CCCCC2)CCCC4)C[C@@]3(O)C1C5", "Activity / %": 85}
{"MOL SMILES": "CN1CC[C@]23c4c5ccc(O)c4O[C@H]2c2c(c4c(n2CCc2ccccc2)CCCC4)C[C@@]3(O)C1C5", "Activity / %": 76}

Query string: Look up Activity: `CCn1c2c(c3c1[C@@H]1Oc4c(O)ccc5c4[C@@]14CCN(C)C(C5)[C@]4(O)C3)CCCC2`
Result string: 66

Query string: Look up Activity: `CN1CC[C@]23c4c5ccc(O)c4O[C@H]2c2c(c4c(n2C)CCCC4)C[C@@]3(O)C1C5`
Result string: 69

Query string: Look up Activity: `CCn1c2c(c3c1[C@@H]1Oc4c(O)ccc5c4[C@@]14CCN(CC1CC1)C(C5)[C@]4(O)C3)CCCC2`
Result string: 63

Query string: Look up Activity: `CN1CC[C@]23c4c5ccc(O)c4O[C@H]2c2c(c4c(n2Cc2ccccc2)CCCC4)C[C@@]3(O)C1C5`
Result string: 43
